assay_text: Thermogravimetric analysis
Format: physicochemical
run_conditions: TGA, 10 °C/min under nitrogen

| compound | Temperature of solvent loss |
| --- | --- |
| CCCCCCCCCCCCCCO[C@@H]1OC[C@@H](O)[C@H](O)[C@H]1O [Compound 9e, Tetradecyl β-D-xylopyranoside] | 100.1 ± 2.93 °C |
| CCCCCCCCCCCCO[C@@H]1OC[C@@H](O)[C@H](O)[C@H]1O [Compound 9d, Dodecyl β-D-xylopyranoside] | 86.35 ± 0.98 °C |
| CCCCCCCCO[C@@H]1OC[C@@H](O)[C@H](O)[C@H]1O [Compound 9b, Octyl β-D-xylopyranoside] | 85.32 ± 0.55 °C |
| CCCCCCCCCCCCCCCCO[C@@H]1OC[C@@H](O)[C@H](O)[C@H]1O [Compound 9f, Hexadecyl β-D-xylopyranoside] | 103.4 ± 1.95 °C |
| CCCCCCO[C@@H]1OC[C@@H](O)[C@H](O)[C@H]1O [Compound 9a, Hexyl β-D-xylopyranoside] | 81.74 ± 0.41 °C |
| CCCCCCCCCCO[C@@H]1OC[C@@H](O)[C@H](O)[C@H]1O [Compound 9c, Decyl β-D-xylopyranoside] | 96.63 ± 0.44 °C |
| O[C@@H]1[C@@H](O)[C@H](OCCC(F)(F)C(F)(F)C(F)(F)C(F)(F)C(F)(F)C(F)(F)F)OC[C@H]1O [Compound 9g] | 50.57 ± 1.64 °C |
